Kindly state IC50 for each of the entries shown.
Target: CETP (cholesteryl ester transfer protein) (Homo sapiens, UniProt P11597)
Sequence (P11597 18-493): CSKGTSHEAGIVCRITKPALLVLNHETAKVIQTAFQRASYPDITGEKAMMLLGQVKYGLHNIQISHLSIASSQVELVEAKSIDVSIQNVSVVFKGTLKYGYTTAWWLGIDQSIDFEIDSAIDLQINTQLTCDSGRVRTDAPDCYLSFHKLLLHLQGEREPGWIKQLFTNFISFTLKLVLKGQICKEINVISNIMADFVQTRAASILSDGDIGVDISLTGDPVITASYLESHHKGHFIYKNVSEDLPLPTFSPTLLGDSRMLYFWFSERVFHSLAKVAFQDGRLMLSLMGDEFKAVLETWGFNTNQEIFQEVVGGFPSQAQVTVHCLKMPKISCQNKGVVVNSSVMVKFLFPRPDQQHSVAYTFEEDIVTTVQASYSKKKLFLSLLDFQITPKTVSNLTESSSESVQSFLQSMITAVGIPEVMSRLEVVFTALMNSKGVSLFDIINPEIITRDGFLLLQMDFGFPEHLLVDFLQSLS
Assay: In vitro CETP activity assay in human plasma
Assay type: biochemical
Design: tissue New Drug Development Research Center, Inc; host or cells: human EDTA plasma from healthy men
Express it in µM; write the number only.

## Input I would be grateful if you could share the reported IC50 for Cn1nnc(N(Cc2cc(C(F)(F)F)cc(C(F)(F)F)c2)Cc2cc3cc(F)c(F)cc3nc2N2CCC[C@@H]2[C@H]2CC[C@H](CC(=O)O)CC2)n1 .
## Output 0.039

## Input // IC50 lookup, key: CCN(CC1CCCC1)c1nc2cc(OC)ccc2cc1CN(Cc1cc(C(F)(F)F)cc(C(F)(F)F)c1)c1nnn(C)n1
## Output 0.075

## Input Item CCN(CC1CCOCC1)c1nc2cc(F)c(F)cc2cc1CN(Cc1cc(C(F)(F)F)cc(C(F)(F)F)c1)c1nnn(C)n1 has what recorded IC50?
## Output 0.03

## Input Data request, read-out IC50, for CCN(CC1CCCC1)c1nc2cc(F)cc(F)c2cc1CN(Cc1cc(C(F)(F)F)cc(C(F)(F)F)c1)c1ncc(N2CCOCC2)cn1
## Output 0.033

## Input Entry under review: Cn1nnc(N(Cc2cc(C(F)(F)F)cc(C(F)(F)F)c2)Cc2cc3cc(F)c(F)cc3nc2N2CCC[C@@H]2[C@H]2CC[C@H](C(=O)O)CC2)n1 . Reported IC50?
## Output 0.045

## Input Name the reported IC50 value associated with the compound CCOC(=O)C[C@H]1CC[C@H](CN(CC)c2nc3ccccc3cc2CN(Cc2cc(C(F)(F)F)cc(C(F)(F)F)c2)c2nnn(C)n2)CC1
## Output 0.22

## Input Query (compound): CCC(CC)[C@H]1CCCN1c1nc2cc(F)c(F)cc2cc1CN(Cc1cc(C(F)(F)F)cc(C(F)(F)F)c1)c1nnn(C)n1 ; field requested: IC50
## Output 0.062

## Input Fill in: IC50 of CCN(CC1CCCC1)c1nc2ccccc2cc1CN(Cc1cc(C(F)(F)F)cc(C(F)(F)F)c1)c1nnn(C)n1 is ___
## Output 0.26

## Input Suppose we examine the compound CCN(CC1CCCCC1)c1nc2cc(F)c(F)cc2cc1CN(Cc1cc(C(F)(F)F)cc(C(F)(F)F)c1)c1nnn(C)n1 ; what IC50 value has been reported?
## Output 0.062

---

target: UniProtKB P11597; experiment: In vitro CETP activity assay in human plasma; assay type: biochemical; set-up: tissue New Drug Development Research Center, Inc; host or cells: human EDTA plasma from healthy men
Hi there, I'd appreciate the recorded IC50 for every entry that follows.
Please state the figure in µM; there is no need to write the unit.

## Input Requested read-out: IC50. Entry: CCN(CC1CCCC1)c1nc2cc(F)c(F)cc2cc1CN(Cc1cc(C(F)(F)F)cc(C(F)(F)F)c1)c1nnn(C)n1
## Output 0.024

## Input Quick one: IC50 of CCN(CC1CCCCC1)c1nc2ccc(F)cc2cc1CN(Cc1cc(C(F)(F)F)cc(C(F)(F)F)c1)c1nnn(C)n1 ?
## Output 0.094

## Input What value of IC50 has been recorded for this entry: CCOC[C@H]1CCCN1c1nc2cc(F)ccc2cc1CN(Cc1cc(C(F)(F)F)cc(C(F)(F)F)c1)c1nnn(C)n1
## Output 0.11

## Input Need IC50, item CCN(CC1CCCC1)c1nc2cc(C#N)ccc2cc1CN(Cc1cc(C(F)(F)F)cc(C(F)(F)F)c1)c1nnn(C)n1
## Output 0.039

---

Kindly state IC50 for each of the entries shown.
Biological target: CETP (cholesteryl ester transfer protein) (Homo sapiens)
Test: In vitro CETP activity assay in human plasma
Assay type: biochemical
Set-up: tissue New Drug Development Research Center, Inc; host or cells: human EDTA plasma from healthy men
Description: (1) Preparation of Human Pro-Apolipoprotein Al (pro-apoAl) […] Human EDTA plasma samples from healthy men are purchased from New Drug Development Research Center, Inc. Donor solution is prepared by a dilution of donor microemulsion with assay buffer. […] Fluorescence intensities are measured every 30 min at 37° C. with excitation wave length of 485 nm and emission wavelength of 535 nm. The CETP activity (Fl/min) is defined as the changes of fluorescence intensity from 30 to 90 min.

## Input I have this molecule here, Cn1nnc(N(Cc2cc(C(F)(F)F)cc(C(F)(F)F)c2)Cc2cc3ccc(F)cc3nc2N2CCCC2C2CCCCC2)n1 (stereo not shown) , and I need its recorded IC50.
## Output 0.043 µM

## Input Form field: reported IC50 of CCN(CC1CCCCC1)c1nc2cc(F)ccc2cc1CN(Cc1cc(C(F)(F)F)cc(C(F)(F)F)c1)c1nnn(C)n1
## Output 0.082 µM

## Input Dear colleague, I am looking for the recorded IC50 of the following molecule: CCN(CC1CCCC1)c1nc2cc(F)c(F)c(F)c2cc1CN(Cc1cc(C(F)(F)F)cc(C(F)(F)F)c1)c1nnn(C)n1
## Output 0.037 µM

## Input Entry under review: CCN(CC1CCCC1)c1nc2cc(C)ccc2cc1CN(Cc1cc(C(F)(F)F)cc(C(F)(F)F)c1)c1nnn(C)n1 . Reported IC50?
## Output 0.092 µM

---

Hi there, I'd appreciate the recorded IC50 for every entry that follows.
Biological target: CETP (cholesteryl ester transfer protein) (Homo sapiens)
Sequence (P11597 18-493): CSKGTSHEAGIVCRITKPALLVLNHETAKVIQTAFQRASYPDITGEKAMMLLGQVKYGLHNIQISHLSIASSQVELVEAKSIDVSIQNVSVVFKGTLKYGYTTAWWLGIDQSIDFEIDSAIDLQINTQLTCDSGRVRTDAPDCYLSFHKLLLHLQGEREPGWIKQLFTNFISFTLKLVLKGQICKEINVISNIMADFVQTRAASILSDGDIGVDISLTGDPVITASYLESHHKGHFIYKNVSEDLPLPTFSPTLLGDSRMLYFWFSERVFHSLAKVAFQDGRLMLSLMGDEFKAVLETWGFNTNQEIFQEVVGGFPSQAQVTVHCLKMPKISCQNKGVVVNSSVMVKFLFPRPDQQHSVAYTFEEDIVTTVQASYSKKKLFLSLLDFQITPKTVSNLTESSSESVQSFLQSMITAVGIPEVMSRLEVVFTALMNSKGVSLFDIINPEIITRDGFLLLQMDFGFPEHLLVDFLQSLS
Assay: CETP inhibitory activity, IC50 in buffer
Type: biochemical
Field: numeric (µM). Do not append units.

## Input Consider the compound shown here: CCN(CC1CCCC1)c1nc2cc(F)c(F)c(F)c2cc1CN(Cc1cc(C(F)(F)F)cc(C(F)(F)F)c1)c1nnn(C)n1 What is its recorded IC50?
## Output 0.036

## Input Any idea what IC50 was measured for Cn1nnc(N(Cc2cc(C(F)(F)F)cc(C(F)(F)F)c2)Cc2cc3cc(F)c(F)cc3nc2N2CCC[C@@H]2[C@H]2CC[C@H](C(=O)O)CC2)n1 ?
## Output 0.021

## Input Item CCN(CC1CCCC1)c1nc2cc(F)cc(F)c2cc1CN(Cc1cc(C(F)(F)F)cc(C(F)(F)F)c1)c1ncc(N2CCOCC2)cn1 has what recorded IC50?
## Output 0.0058

## Input Look at this compound and give its reported IC50. Cn1nnc(N(Cc2cc(C(F)(F)F)cc(C(F)(F)F)c2)Cc2cc3ccc(F)cc3nc2N2CCCC2C2CCCCC2)n1 (centres unmarked)
## Output 0.039

## Input // returns reported IC50 for input CCC(CC)[C@H]1CCCN1c1nc2cc(F)c(F)cc2cc1CN(Cc1cc(C(F)(F)F)cc(C(F)(F)F)c1)c1nnn(C)n1
## Output 0.06

## Input # query: IC50 of entry CCN(CC1CCCC1)c1nc2cc(C#N)ccc2cc1CN(Cc1cc(C(F)(F)F)cc(C(F)(F)F)c1)c1nnn(C)n1
## Output 0.054

## Input Field request: IC50 | item: CCN(CC1CCCC1)c1nc2cc(F)c(F)cc2cc1CN(Cc1cc(C(F)(F)F)cc(C(F)(F)F)c1)c1nnn(C)n1
## Output 0.04

## Input For the compound CCN(CC1CCOCC1)c1nc2cc(F)c(F)cc2cc1CN(Cc1cc(C(F)(F)F)cc(C(F)(F)F)c1)c1nnn(C)n1 , what IC50 is on record?
## Output 0.16

## Input Query: IC50; subject: CCN(CC1CCCC1)c1nc2cc(C)ccc2cc1CN(Cc1cc(C(F)(F)F)cc(C(F)(F)F)c1)c1nnn(C)n1
## Output 0.028

## Input # IC50 lookup, item Cn1nnc(N(Cc2cc(C(F)(F)F)cc(C(F)(F)F)c2)Cc2cc3cc(F)c(F)cc3nc2N2CCC[C@@H]2[C@H]2CC[C@H](CC(=O)O)CC2)n1
## Output 0.025

## Input I would be grateful if you could share the reported IC50 for CCN(CC1CCCC1)c1nc2ccccc2cc1CN(Cc1cc(C(F)(F)F)cc(C(F)(F)F)c1)c1nnn(C)n1 .
## Output 0.16

## Input Form field: reported IC50 of CCN(CC1CCCCC1)c1nc2ccc(F)cc2cc1CN(Cc1cc(C(F)(F)F)cc(C(F)(F)F)c1)c1nnn(C)n1
## Output 0.12

## Input Quick check: IC50 of CCN(CC1CCCC1)c1nc2cc(OC)ccc2cc1CN(Cc1cc(C(F)(F)F)cc(C(F)(F)F)c1)c1nnn(C)n1 ?
## Output 0.044

## Input What value of IC50 has been reported for the following compound? CCOC(=O)C[C@H]1CC[C@H](CN(CC)c2nc3ccccc3cc2CN(Cc2cc(C(F)(F)F)cc(C(F)(F)F)c2)c2nnn(C)n2)CC1
## Output 0.25

## Input Recorded IC50 for CCN(CC1CCCCC1)c1nc2cc(F)c(F)cc2cc1CN(Cc1cc(C(F)(F)F)cc(C(F)(F)F)c1)c1nnn(C)n1 , please?
## Output 0.043

## Input Recorded IC50 for CCOC[C@H]1CCCN1c1nc2cc(F)ccc2cc1CN(Cc1cc(C(F)(F)F)cc(C(F)(F)F)c1)c1nnn(C)n1 , please?
## Output 0.12

## Input Consider the compound shown here: CCN(CC1CCCCC1)c1nc2cc(F)ccc2cc1CN(Cc1cc(C(F)(F)F)cc(C(F)(F)F)c1)c1nnn(C)n1 What is its recorded IC50?
## Output 0.032
